target: SARS-COV-2 RBD extracellular domain expressed with a C-terminal mouse IgG2a (SARS-CoV-2); test: SPR Biacore, mAb captured via anti-hFc, 25 C
metric_name: t½

Examples with answers:
binder | t½
mAb11004 (antibody, V domains shown) VH: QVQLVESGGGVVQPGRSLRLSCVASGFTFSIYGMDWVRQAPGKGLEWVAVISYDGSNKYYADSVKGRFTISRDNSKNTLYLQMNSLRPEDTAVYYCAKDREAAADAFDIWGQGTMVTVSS VL: DIQMTQSPSSVSASVGDRVTITCRASQGISSWLAWYQQKPGKAPKLLIYAASSLHSGVPSRFSGSGSGTDFTLTISSLQPEDFATYYCQQANSFRLTFGGGTKVEIKR | 180 min
mAb10985 (antibody, V domains shown) VH: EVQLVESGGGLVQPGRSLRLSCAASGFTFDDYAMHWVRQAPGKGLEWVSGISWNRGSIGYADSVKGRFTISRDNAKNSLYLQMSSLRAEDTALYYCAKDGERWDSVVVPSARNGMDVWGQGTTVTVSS VL: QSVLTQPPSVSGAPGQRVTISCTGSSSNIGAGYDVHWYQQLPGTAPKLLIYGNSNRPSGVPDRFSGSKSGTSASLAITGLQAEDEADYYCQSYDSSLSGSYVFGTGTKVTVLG | 136 min
mAb10971 (antibody, V domains shown) VH: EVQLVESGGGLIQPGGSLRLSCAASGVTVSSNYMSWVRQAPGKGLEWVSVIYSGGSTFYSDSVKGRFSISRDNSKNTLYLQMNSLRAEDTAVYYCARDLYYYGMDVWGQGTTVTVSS VL: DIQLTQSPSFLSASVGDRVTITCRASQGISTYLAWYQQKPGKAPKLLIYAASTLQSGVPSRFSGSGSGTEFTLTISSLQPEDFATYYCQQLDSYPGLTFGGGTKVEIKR | 282 min
mAb10935 (antibody, V domains shown) VH: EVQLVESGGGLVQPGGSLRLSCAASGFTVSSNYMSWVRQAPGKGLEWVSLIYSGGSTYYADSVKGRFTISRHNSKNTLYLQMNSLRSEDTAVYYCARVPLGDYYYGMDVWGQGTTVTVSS VL: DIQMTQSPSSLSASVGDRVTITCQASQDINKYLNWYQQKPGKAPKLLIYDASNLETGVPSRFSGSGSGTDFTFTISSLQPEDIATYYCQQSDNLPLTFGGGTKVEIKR | 108 min

Attention now turns to another entry.
## Task For the binder mAb10913 (antibody, V domains shown) VH: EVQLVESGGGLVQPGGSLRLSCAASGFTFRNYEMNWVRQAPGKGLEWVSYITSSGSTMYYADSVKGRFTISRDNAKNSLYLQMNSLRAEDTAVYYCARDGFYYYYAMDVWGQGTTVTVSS VL: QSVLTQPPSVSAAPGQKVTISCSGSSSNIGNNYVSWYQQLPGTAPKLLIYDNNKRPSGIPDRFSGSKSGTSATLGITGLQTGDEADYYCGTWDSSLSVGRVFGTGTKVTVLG , what t½ is on record?
## Result 41.7 min

The measured values listed here are drawn from patent US20240043504A1.
